Documented Susceptibility across a set of compounds
Biological target: Dipeptidase 1 (Sus scrofa) (UniProt P22412)
Sequence (whole entry): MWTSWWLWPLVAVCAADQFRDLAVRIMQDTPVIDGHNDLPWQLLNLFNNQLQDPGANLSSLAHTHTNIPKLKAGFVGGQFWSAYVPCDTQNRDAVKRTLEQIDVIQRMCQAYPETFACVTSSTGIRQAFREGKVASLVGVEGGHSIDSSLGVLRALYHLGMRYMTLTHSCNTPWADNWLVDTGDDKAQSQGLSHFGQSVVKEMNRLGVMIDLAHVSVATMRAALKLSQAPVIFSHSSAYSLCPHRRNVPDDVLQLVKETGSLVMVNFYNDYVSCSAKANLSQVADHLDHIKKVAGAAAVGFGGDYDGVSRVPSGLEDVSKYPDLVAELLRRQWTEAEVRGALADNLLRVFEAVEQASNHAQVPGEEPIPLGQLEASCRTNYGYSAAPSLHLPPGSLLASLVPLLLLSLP
Assay: Susceptibility of compound towards porcine Dehydropeptidase-1 relative to imipenem as […] was calculated

# mol, Susceptibility
rows = [
    ("C[C@@H](O)[C@H]1C(=O)N2C(C(=O)[O-])=C(c3ccc(C[n+]4cccc(C(=O)N(C)C)c4)cc3)C[C@H]12", 0.05),
    ("C[C@@H](O)[C@H]1C(=O)N2C(C(=O)O)=C(c3ccc(CN4CCN(C)CC4)cc3)C[C@H]12", 0.12),
    ("C[C@@H](O)[C@H]1C(=O)N2C(C(=O)[O-])=C(c3ccc(C[n+]4cccc(C(F)(F)F)c4)cc3)C[C@H]12", 0.04),
    ("C[C@@H](O)[C@H]1C(=O)N2C(C(=O)[O-])=C(c3ccc(C[n+]4ccc(N5CCOCC5)cc4)cc3)C[C@H]12", 0.06),
    ("C[C@@H](O)[C@H]1C(=O)N2C(C(=O)[O-])=C(c3ccc(C[n+]4cc(N)cc5ccccc54)cc3)C[C@H]12", 0.09),
    ("C[C@@H](O)[C@H]1C(=O)N2C(C(=O)O)=C(c3ccc(CN4CCSCC4)cc3)C[C@H]12", 0.13),
    ("C[C@@H](O)[C@H]1C(=O)N2C(C(=O)[O-])=C(c3ccc(C[n+]4ccc(CCS(=O)(=O)[O-])cc4)cc3)C[C@H]12.[K+]", 0.06),
    ("C[C@@H](O)[C@H]1C(=O)N2C(C(=O)[O-])=C(c3ccc(C[n+]4cccc5ccccc54)cc3)C[C@H]12", 0.07),
    ("Cc1cc[n+](Cc2ccc(C3=C(C(=O)[O-])N4C(=O)[C@H]([C@@H](C)O)[C@H]4C3)cc2)cc1", 0.06),
    ("C[C@@H](O)[C@H]1C(=O)N2C(C(=O)[O-])=C(c3ccc(C[n+]4ccc5ccccc5c4N)cc3)C[C@H]12", 0.14),
    ("C[C@@H](O)[C@H]1C(=O)N2C(C(=O)[O-])=C(c3ccc(C[N+]4(C)CCCC4)cc3)C[C@H]12", 0.03),
    ("C[C@@H](O)[C@H]1C(=O)N2C(C(=O)[O-])=C(c3ccc(C[N+]4(C)CCCCC4)cc3)C[C@H]12", 0.03),
    ("C[C@@H](O)[C@H]1C(=O)N2C(C(=O)[O-])=C(c3ccc(C[n+]4ccc(N5CCCC5)cc4)cc3)C[C@H]12", 0.33),
    ("C[C@@H](O)[C@H]1C(=O)N2C(C(=O)O)=C(c3ccc(CN4CCOCC4)cc3)C[C@H]12", 0.13),
    ("C[C@@H](O)[C@H]1C(=O)N2C(C(=O)[O-])=C(c3ccc(C[n+]4cccc(C(=O)O)c4)cc3)C[C@H]12", 0.08),
]
